TGI values by entry
# System: SF-539 CNS
# Test details: NCI tumour cell line growth inhibition, 48 h

Molecule: CN1C(=O)C(C)(C)C2(SC(C)(C)C2(C)C)N(C)C1=S (stereo not drawn)
TGI: > 100 µM
--
Molecule: CC(C)CC(=O)OC[n+]1ccc(-c2c(COC(=O)NC(C)C)c(COC(=O)NC(C)C)c3n2CCC3)cc1
TGI: > 100 µM
--
Molecule: O=C(O)c1cccc2c1/C(=N/Nc1ccccc1)CC2
TGI: > 100 µM
--
Molecule: CC(=O)O[C@H]1C(=O)[C@]2(C)[C@@H](OC(=O)OCCC(O)CO)C[C@H]3OC[C@@]3(OC(C)=O)[C@H]2[C@H](OC(=O)c2ccccc2)[C@]2(O)C[C@H](OC(=O)[C@H](O)[C@@H](NC(=O)c3ccccc3)c3ccccc3)C(C)=C1C2(C)C (stereo partly drawn)
TGI: 0.0297 µM
--
Molecule: COc1ccc(C(=O)Cn2c(C(=O)c3ccccc3)nc(-c3ccc(OC)cc3)c2-c2ccc(OC)cc2)cc1
TGI: > 100 µM
--
Molecule: Clc1ccc2c(NCCCCNc3nc(N4CCCCC4)nc4ccccc34)ccnc2c1
TGI: 2.97 µM
--
Molecule: CCN(CC)CCC(=O)Nc1ccc2c(c1)C(=O)c1ccc(NC(=O)CCN(CC)CC)cc1C2=O
TGI: 15.3 µM
--
Molecule: Cc1cc(N(CCC#N)CCC#N)ccc1/C(N=Nc1ccc(Cl)cc1)=N\NC(=O)c1ccccc1
TGI: 50.8 µM
--
Molecule: CCOC(=O)C(NC(C)=O)(Nc1ccc(F)cc1)C(F)(F)F (stereo not drawn)
TGI: > 100 µM
--
Molecule: CCC1(O)CC2CC(=O)OC2C1O (stereo not drawn)
TGI: > 100 µM
--
Molecule: CNC(=O)OCC1=C(COC(=O)NC)C(C)N(c2ccc(OC)cc2)C1 (stereo not drawn)
TGI: > 100 µM
--
Molecule: N#CCCN(CCC#N)c1ccc(/C=C2\N=C(c3cc([N+](=O)[O-])ccc3Cl)OC2=O)cc1
TGI: > 100 µM
--
Molecule: CSc1nc2c(c(=O)[nH]1)N=C1c3ccccc3C(=O)C1C(c1ccccc1)N2 (stereo not drawn)
TGI: 17.9 µM
--
Molecule: C[C@@]12C[C@@H](c3ccccc3O1)N1CCCCSC1=N2
TGI: > 100 µM
--
Molecule: O=C(Nc1ccccc1)NS(=O)(=O)c1ccc(-n2nc3c(c2-c2cccs2)Cc2ccccc2-3)cc1
TGI: 55.5 µM
--
Molecule: CCC[C@@H](O)C[C@@H]1CCC[C@H](C[C@@H](O)CC)N1C
TGI: > 100 µM
--
Molecule: CC(C)c1ccc(/C=C2/C=C(c3ccc4ccccc4c3)OC2=O)cc1
TGI: > 100 µM
--
Molecule: COc1ccc2c3c1C(=O)CCCC3CO2 (stereo not drawn)
TGI: > 100 µM

###

# Test system: RXF 393 renal
# Test details: NCI tumour cell line growth inhibition, 48 h; in the data active means GI50 below about 0.43 µM; inactive means the rest
Where a SMILES comes first, the peptide text is derived from it. [ ]: non-standard residue; d: D form. The star is where a group is joined. ξ: configuration not given here. X6 = FC(F)(F)c1cc(NC(=S)*)cc(C(F)(F)F)c1; ξF = NC(Cc1ccccc1)C(=O)O
Classes used: class 1 = active, class 0 = inactive

Molecule: COc1ccc(-c2nc3sccn3c2/C(N)=N/C(=N)N)cc1OC
Class name: class 0
//
Molecule: O=C([O-])CC(=O)[O-].O=C([O-])CC(=O)[O-].[K+].[Pd+2]
Class name: class 0
//
Molecule: CC(C)CCC[C@@H](C)[C@H]1CC[C@H]2[C@@H]3CC=C4C[C@@H](C(C(=O)O)C(=O)O)CC[C@]4(C)[C@H]3CC[C@]12C
Class name: class 1
//
Molecule: OCc1ccc(N2CCC2c2ccc(F)cc2)cc1Cl (centres undefined)
Class name: class 0
//
Molecule: COc1cc(Cc2cnc(/N=C3\C(=O)N(CN4CCN(c5c(F)cc6c(=O)c(C(=O)O)cn(C7CC7)c6c5OC)CC4C)c4ccc(F)cc43)nc2N)cc(OC)c1OC (centres undefined)
Class name: class 0
//
Molecule: COc1ccc(C(=O)Cn2c(C(=O)c3ccccc3)nc(-c3ccc(OC)cc3)c2-c2ccc(OC)cc2)cc1
Class name: class 0
//
Molecule: O=C(/C=C/C12c3ccccc3C(c3ccccc31)C1C(=O)NC(=O)C12)c1ccncc1 (centres undefined)
Class name: class 0
//
Molecule: O=S(=O)(NC1=NCCN1C(=S)SN1CCn2c1nsc2=S)c1ccc(OC(F)(F)F)cc1
Class name: class 0
//
Molecule: Cc1ccc(C(=O)/C(=C/c2ccc([N+](=O)[O-])cc2)SCc2ccc(Cl)cc2)cc1
Class name: class 0
//
Molecule: Cc1cc(I)cc(CN(C)CCCCN2CCCCC2)c1O
Class name: class 0
//
Molecule: O=C(Nc1ccccc1OC(F)(F)F)Nc1n[nH]c2ccccc12
Class name: class 0
//
Molecule: Clc1ccc2c(NCCCCNc3nc(N4CCCCC4)nc4ccccc34)ccnc2c1
Class name: class 0
//
Molecule: COC(=O)[C@@H](NC(=O)CNC(=O)[C@H]1CCCN1C(=O)C(Cc1ccccc1)NC(=S)Nc1cc(C(F)(F)F)cc(C(F)(F)F)c1)C(C)C (some centres undefined) (X6-[ξF][dP]GV-OMe)
Class name: class 0
//
Molecule: CC[C@@]1(O)C[C@H](OC2CC(N(C)C)C(O)C(C)O2)c2c(O)c3c(c(O)c2[C@H]1OC1CC(N(C)C)C(O)C(C)O1)C(=O)c1cccc(O)c1C3=O (some centres undefined)
Class name: class 1

###

TGI values by entry
# Tested on: RPMI-8226 leukemia
# Test details: NCI tumour cell line growth inhibition, 48 h

Compound: O=C1CCC23CC(C=CC=C12)n1c(=O)n(-c2ccccc2)c(=O)n13 (stereo not given)
TGI: > 100 µM
//
Compound: CC(C)C1/C(=N/O)CC(c2ccccc2)N(N=O)C1c1ccccc1 (stereo not given)
TGI: > 100 µM
//
Compound: NC(=O)C(c1ccccc1)N1OC2C(=O)N(c3ccccc3)C(=O)C2C1c1c2ccccc2c(Cl)c2ccccc12 (stereo not given)
TGI: > 100 µM
//
Compound: C#Cc1ccc(-n2c(/C=C/c3ccc(C(F)(F)F)cc3)nc3ncccc3c2=O)cc1
TGI: 6.28 µM
//
Compound: CC1(c2ccc(F)cc2)C(C#N)C(=O)NC(=O)C1C#N (stereo not given)
TGI: > 100 µM
//
Compound: CCCCCCCCCCCCCCCCCC(CCCCCCCCCCCCCCCCC)OP(=O)(O)O
TGI: > 100 µM
//
Compound: CCOC(=O)C1=C(C)NC(=S)NC1c1ccccc1 (stereo not given)
TGI: > 65.6 µM
//
Compound: Cn1cnc([N+](=O)[O-])c1Sc1nnc(-c2cccnc2)n1C
TGI: 49.4 µM
//
Compound: CO[C@H](C(=O)[C@@H](O)[C@@H](C)O)[C@@H]1Cc2cc3cc(O[C@H]4C[C@@H](O[C@H]5C[C@@H](O)[C@H](O)C(C)O5)[C@H](O)C(C)O4)c(C)c(O)c3c(O)c2C(=O)[C@H]1O[C@H]1C[C@@H](O[C@H]2C[C@@H](O[C@H]3C[C@](C)(O)C(=O)C(C)O3)[C@@H](O)C(C)O2)[C@H](O)C(C)O1 (stereo not given in full)
TGI: 1.61 µM
//
Compound: O=C1c2ccccc2C2C1N2C(=O)C(F)(F)F (stereo not given)
TGI: > 100 µM
//
Compound: CCOC(=O)N1CCC2(CC1)C[C@](C)(C(C)=O)C(C)O2 (stereo not given in full)
TGI: > 100 µM
//
Compound: CC(C)=CC(=O)C1c2cccc(O)c2C(=O)c2c(O)cc(C)cc21 (stereo not given)
TGI: 30.4 µM
//
Compound: O=C1C(=O)N(c2ccc(Cl)cc2Cl)C(=O)C(=O)C1c1nc2ccccc2s1
TGI: > 100 µM
//
Compound: Oc1ccc(-c2nc(-c3cccnc3)c(-c3ccc(F)cc3)[nH]2)cc1
TGI: 39.8 µM
//
Compound: CC(C)c1ccc(/C=C2/C=C(c3ccc4ccccc4c3)OC2=O)cc1
TGI: 93.7 µM
//
Compound: CC12CCC(O)CC1CCC1C2CCC2(C)C(C3=CC(=O)OC3)CCC12O (stereo not given)
TGI: > 30 µM
//
Compound: Cc1cn(C2CC(N(O)C(N)=O)C(CO)O2)c(=O)[nH]c1=O (stereo not given)
TGI: > 100 µM
//
Compound: CCc1ccc(CCN2CCCCC2)nc1
TGI: > 100 µM
//
Compound: N.N.N.N.O=[N+]([O-])[O-].[Co+3].[N-]=[N+]=[N-].[N-]=[N+]=[N-]
TGI: > 100 µM
//
Compound: Cc1ccc(C(=O)/C(=C/c2ccc([N+](=O)[O-])cc2)SCc2ccc(Cl)cc2)cc1
TGI: 0.696 µM
